B1: TRIM43 (parent)
chain: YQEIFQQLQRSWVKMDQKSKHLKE

variants of: B1; assay: protein stability index of a GFP-peptide fusion (GPS, HEK-293T) (PSI 1-6); higher = more stable; conditions: c terminus: a fixed tail appended;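 also: lentivirally expressed fusions sorted by FACS into six bins by GFP to DsRed ratio, PSI derived from sequencing read proportions per bin multiplied by bin number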

- Variant Name: "Y1M"
  protein stability index: 1.99
- Variant Name: "K18H"
  protein stability index: 2.04
- Variant Name: "S19R"
  protein stability index: 1.98
- Variant Name: "Q17C"
  protein stability index: 2.05
- Variant Name: "V13A"
  protein stability index: 2.04
- Variant Name: "K23N"
  protein stability index: 2.03
